Tested on: Plasmodium berghei ANKA liver stage in HepG2-A16-CD81
Test: % inhibition of liver stage parasite viability (luciferase); higher = more inhibition
Details: 5 µM; 48 h
// reported % inhibition of liver stage parasite viability for each item listed
readout.kind: % inhibition of liver stage parasite viability (%)

INSERT INTO assay_data (compound, obs_value) VALUES
  ('O=C(CCCC(F)(F)F)N1CCC(c2nc(-c3nccs3)no2)CC1', -0.37),
  ('CNCC(=O)OCc1cccnc1N(C)C(=O)OC(C)[n+]1cnn(C[C@](O)(c2cc(F)ccc2F)[C@@H](C)c2nc(-c3ccc(C#N)cc3)cs2)c1 (stereo partly drawn)', 29.6),
  ('O=C(O)c1cc(-c2ccccc2)nc2ccccc12', 38.5),
  ('O=C(Nc1nnc(-c2ccccc2)o1)c1ccc(F)cc1', 53.8),
  ('CC(C)(C)NC(=O)N[C@H](C(=O)N1C[C@H]2[C@@H]([C@H]1C(=O)NC(CC1CCC1)C(=O)C(N)=O)C2(C)C)C(C)(C)C (stereo partly drawn)', -15.2),
  ('Nc1nnc(-c2ccc(Cl)cc2)s1', 26.2),
  ('CN(C/C=C/C#CC(C)(C)C)Cc1cccc2ccccc12', 29.1),
  ('C[C@H]1[C@@H](c2cccc(C(F)(F)F)c2)OC(=O)N1C(=O)NCc1cncc2ccccc12', 63.9),
  ('Nc1nnnn1CCOc1c2[nH]c3ccc(Cl)cc3c2cc2c1[nH]c1ccc(Cl)cc12', 24.1),
  ('C=C(C)[C@@H]1CC[C@]2(C(=O)O)CC[C@]3(C)[C@H](CC[C@@H]4[C@@]5(C)CC[C@H](O)C(C)(C)[C@@H]5CC[C@]43C)[C@@H]12', 57),
  ('Cc1cc(NS(=O)(=O)c2ccc(-c3ccc(F)cc3F)cc2)no1', 43.5),
  ('COc1nc2ccc(Br)cc2cc1[C@@H](c1ccccc1)[C@@](O)(CCN(C)C)c1cccc2ccccc12', 31.1),
  ('COc1ccc(SCC(=O)N2c3ccccc3Sc3ccccc32)cc1', 31.1),
  ('COc1ccc(-n2cnc3cc(NCc4ccco4)ccc32)cc1', -16.1),
  ('CCCCC(CC)CNC(=N)NC(=N)NCCCCCCNC(=N)NC(=N)NCC(CC)CCCC (stereo not drawn)', 74),
  ('NC[C@H]1O[C@H](O[C@H]2[C@H](O)[C@@H](O[C@H]3O[C@H](CO)[C@@H](O)[C@H](N)[C@H]3O)[C@H](N)C[C@@H]2N)[C@H](N)C[C@@H]1O', 36.3),
  ('NC(=S)N/N=C/c1ncccc1N', 63.5),
  ('O=C(O)[C@H]1C2CCC(CC2)[C@@H]1Nc1nc(-c2c[nH]c3ncc(F)cc23)ncc1F', 34),
  ('Clc1ccc(Cn2c(CN3CCCC3)nc3ccccc32)cc1', 22.9),
  ('CCNC(=O)Nc1cc2c(-c3ccnc(C)c3)ccc(CNC(=O)OC)c2cn1', 25.9),
  ('CCNC(=O)Nc1cn2c(-c3ncc(CC)cn3)cc(-c3cccnc3)cc2n1', 4.97),
  ('Clc1ccc(COC(Cn2ccnc2)c2ccc(Cl)cc2Cl)c(Cl)c1 (stereo not drawn)', 33.2),
  ('Cn1cncc1[C@@](N)(c1ccc(Cl)cc1)c1ccc2c(c1)c(-c1cccc(Cl)c1)cc(=O)n2C', 60.7),
  ('O=C(NC1CCCc2c1[nH]c1ccc(Cl)cc21)c1ccccn1 (stereo not drawn)', 2.22),
  ('Cc1onc(-c2ccccc2Cl)c1C(=O)N[C@@H]1C(=O)N2[C@@H]1SC(C)(C)[C@@H]2C(=O)O', 17.1),
  ('CCc1cc(Nc2cc(=O)n(CCN3CCN(C(=O)c4ccccc4)CC3)c(=O)[nH]2)ccc1C', 10.7),
  ('CCC[C@@H]1C[C@@H](C(=O)N[C@@H]([C@H]2O[C@H](SC)[C@H](O)[C@@H](O)[C@H]2O)[C@H](C)Cl)N(C)C1', 92.2),
  ('OB1OCc2cc(Cl)ccc21', 23.6),
  ('CC(Oc1ccc(Cl)cc1Cl)C(=O)NCc1ccc2c(c1)OCO2 (stereo not drawn)', 7.01),
  ('[N-]=[N+]=N[C@H]1C[C@H](n2ccc(=O)[nH]c2=O)O[C@@H]1CO', -3.95),
  ('COc1cc(C)c2c(Oc3cccc(C(F)(F)F)c3)c(OC)cc(NC(C)CCCN)c2n1 (stereo not drawn)', 38.2),
  ('c1ccc(Cn2c(-c3ccccn3)nc3ccccc32)cc1', -11),
  ('C=C[C@]1(C)C[C@@H](OC(=O)CS[C@@H]2C[C@H]3CC[C@@H](C2)N3C)[C@]2(C)[C@H](C)CC[C@]3(CCC(=O)[C@H]32)[C@@H](C)[C@@H]1O', 53);
